- Target: EGFR Del19/C797S (Homo sapiens, UniProt P00533, C797S/DEL746-750)
- Sequence (P00533 with tags, fused parts or gaps DEL746-750/C797S): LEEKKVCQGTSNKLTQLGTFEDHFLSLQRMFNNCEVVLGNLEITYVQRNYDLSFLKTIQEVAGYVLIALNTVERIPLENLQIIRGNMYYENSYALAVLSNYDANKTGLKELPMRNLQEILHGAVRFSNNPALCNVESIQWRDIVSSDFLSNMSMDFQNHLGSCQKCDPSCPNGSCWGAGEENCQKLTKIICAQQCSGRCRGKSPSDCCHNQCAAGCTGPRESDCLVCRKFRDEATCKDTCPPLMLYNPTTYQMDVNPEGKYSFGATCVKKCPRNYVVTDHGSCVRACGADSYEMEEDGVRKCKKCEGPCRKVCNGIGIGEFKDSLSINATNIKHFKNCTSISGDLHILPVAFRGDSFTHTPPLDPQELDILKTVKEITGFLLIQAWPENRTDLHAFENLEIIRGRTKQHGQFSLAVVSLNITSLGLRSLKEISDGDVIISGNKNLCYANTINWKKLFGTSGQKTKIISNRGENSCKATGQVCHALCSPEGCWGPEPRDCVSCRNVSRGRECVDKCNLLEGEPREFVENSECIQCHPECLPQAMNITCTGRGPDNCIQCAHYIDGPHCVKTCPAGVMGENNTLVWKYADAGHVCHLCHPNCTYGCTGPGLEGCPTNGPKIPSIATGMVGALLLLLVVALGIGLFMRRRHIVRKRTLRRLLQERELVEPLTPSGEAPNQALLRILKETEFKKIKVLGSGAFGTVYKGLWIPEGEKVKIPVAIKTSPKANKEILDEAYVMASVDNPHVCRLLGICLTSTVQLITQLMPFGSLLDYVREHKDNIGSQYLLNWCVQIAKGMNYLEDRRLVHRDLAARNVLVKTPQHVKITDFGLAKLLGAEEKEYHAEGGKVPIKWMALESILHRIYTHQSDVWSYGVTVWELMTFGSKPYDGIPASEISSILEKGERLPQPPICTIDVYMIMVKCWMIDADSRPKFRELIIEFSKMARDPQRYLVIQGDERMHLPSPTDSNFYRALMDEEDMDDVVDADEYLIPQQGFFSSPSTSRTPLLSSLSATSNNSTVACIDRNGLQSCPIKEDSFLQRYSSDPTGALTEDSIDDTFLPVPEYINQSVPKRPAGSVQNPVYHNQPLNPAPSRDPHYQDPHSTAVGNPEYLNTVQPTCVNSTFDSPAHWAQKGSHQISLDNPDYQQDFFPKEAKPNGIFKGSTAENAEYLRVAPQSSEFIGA
- Method description: Biochemical EGFR kinase inhibition assay (Lance Ultra TR-FRET), double mutant del19/C797S
- Run parameters: IC50 Del19/C797S (nM), 100 μM ATP
Reported IC50 values follow for various compounds

Compound	Target	IC50, nM
CN1CCC2(CC1)CCN(c1cc(Nc3ccnc(-c4cnn(S(=O)(=O)C5CC5)c4)n3)ncc1C#Cc1cnn(C(F)F)c1)CC2 [Example 321]	EGFR Del19/C797S (Homo sapiens, UniProt P00533, C797S/DEL746-750)	8
CN1CCN(Cc2ccc(C#Cc3cnc(Nc4ccnc(-c5cnn(S(=O)(=O)C6CC6)c5)n4)cc3NC[C@H]3CC[C@](C)(O)CC3)cc2)CC1 [Example 363]	EGFR Del19/C797S (Homo sapiens, UniProt P00533, C797S/DEL746-750)	8.2
O=S(=O)(C1CC1)n1cc(-c2nccc(Nc3cc(N[C@H]4CC[C@](O)(CO)CC4)c(C#Cc4cnn(C(F)F)c4)cn3)n2)cn1 [Example 304]	EGFR Del19/C797S (Homo sapiens, UniProt P00533, C797S/DEL746-750)	64
